Test system: Trypanosoma cruzi
Assay details: Antitrypanosomal activity against Trypanosoma cruzi Y trypomastigotes infected in African green monkey Vero cells assessed as parasite growth inhibition incubated for 24 hrs by hemocytometry
Type: functional, organism-based
Recorded measurements of pIC50, one per entry
# pIC50 = -log10(concentration in molar units)

Solved entries:
C/C(=N\N=C1\SC(C(C)C)C(=O)N1C)c1ccncc1 (stereo not given) : 3.46
CC1(C)S/C(=N/N=C/c2ccccn2)NC1=O : 4.05
N/C(S)=N/N=C/c1ccccn1 : 4.00
S=C(N/N=C/c1ccccn1)Nc1ccccc1 : 5.22

Please find the next compound below.
pIC50 for C/C(=N\NC(N)=S)c1ccccn1 ? 3.86

====

Test system: Trypanosoma cruzi
Assay details: Induction of apoptosis in Trypanosoma cruzi trypomastigotes assessed as necrotic cells at IC50 incubated for 24 hrs by annexin V-FITC/PI staining based flow cytometry (reference value: 4.05 %)
Format: functional
Assay metric: Activity (%)
Give your result in % as a bare value.

CC(C)C1S/C(=N/N=C/c2ccccn2)N(c2ccccc2)C1=O (centres undefined) : 6.38
O=C(Cn1ccnc1[N+](=O)[O-])NCc1ccccc1 : 11.69
CC1(C)S/C(=N/N=C/c2ccccn2)N(c2ccccc2)C1=O : 21.53

Please find the next molecule below.
Activity for S=C(N/N=C/c1ccccn1)Nc1ccccc1 ? 6.13

====

Assay details: Selectivity index, ratio of CC50 for mouse RAW264.7 cells to IC50 for Leishmania amazonensis WHOM/00 LTB 0016 promastigotes
Assay type: toxicity
Conditions used: read-out: Ratio CC50/IC50
Assign classes using reported selectivity ratio values and the ranges low bin: < 0.5; mid bin: ≥ 0.5 and < 4; high bin: ≥ 4, please.

Some entries whose results are on file:
C/C(=N\NC(N)=S)c1ccccn1 : mid bin
C/C(=N\NC(=S)Nc1ccccc1)c1ccncc1 : high bin
C/C(=N\N=C1/SCC(=O)N1C)c1ccccn1 : mid bin
O=C1CS/C(=N/N=C/c2ccccn2)N1c1ccccc1 : low bin
CN1C(=O)C(C)(C)S/C1=N/N=C/c1ccccn1 : high bin
C/C(=N\NC(=S)Nc1ccccc1)c1ccccn1 : low bin

Given CCCCCCCCCCCCCCCCOP(=O)([O-])OCC[N+](C)(C)C [MILTEFOSINE] , name the class its selectivity ratio places it in. high bin

Given C/C(=N\N=C1/NC(=O)C(C(C)C)S1)c1ccncc1 (stereo not drawn) , name the class its selectivity ratio places it in. low bin

Given C/C(=N\N=C1\NC(=O)CS1)c1ccccn1 , name the class its selectivity ratio places it in. high bin

Given CN1C(=O)CS/C1=N/N=C/c1ccccn1 , name the class its selectivity ratio places it in. low bin

Given CC(C)C1S/C(=N/N=C/c2ccccn2)N(c2ccccc2)C1=O (stereo not drawn) , name the class its selectivity ratio places it in. low bin

Given C/C(=N\N=C1\SC(C(C)C)C(=O)N1c1ccccc1)c1ccncc1 (stereo not drawn) , name the class its selectivity ratio places it in. high bin

====

Tested on: Trypanosoma cruzi
Assay details: Antitrypanosomal activity against Trypanosoma cruzi Y trypomastigotes infected in African green monkey Vero cells assessed as parasite growth inhibition incubated for 24 hrs by hemocytometry
Format: functional, organism-based
Recorded measurements of pIC50, one per entry
# pIC50 = -log10(concentration in molar units)

Solved entries:
CN1C(=O)CS/C1=N/N=C/c1ccccn1 : 3.37
C/C(=N\N=C1/NC(=O)CS1)c1ccncc1 : 3.73
CC1(C)S/C(=N/N=C/c2ccccn2)N(c2ccccc2)C1=O : 6.05
CC(C)C1S/C(=N/N=C/c2ccccn2)NC1=O (configuration not stated) : 4.36
C/C(=N\N=C1\SC(C(C)C)C(=O)N1c1ccccc1)c1ccncc1 (configuration not stated) : 5.82

pIC50 for C/C(=N\N=C1\NC(=O)CS1)c1ccccn1 ? 4.42

pIC50 for O=C1CS/C(=N/N=C/c2ccccn2)N1c1ccccc1 ? 4.15

The origin of these recorded values is ChEMBL document CHEMBL5325424.
